Attribution: PubChem BioAssay (NCI)

- Measurement notes: NCI Yeast Anticancer Drug Screen. Data for the rad18 strain (AID 177)
- Test context: S. cerevisiae rad18 mutant growth inhibition; at 11.0 µM
Compounds without any hit were thinned out: in the full panel of roughly 79,000, 15% have a hit. Calls of active or inactive are those of the source. Rule as the data show it: active = growth inhibition above about 70%; inactive = the rest.
Thanks in advance; please answer with one of these: 1 for active, 0 for inactive

{"Compound": "c1ccc2c(c1)-c1nc3ccccc3cc1C2N1CCOCC1 (centres undefined)", "Category label": 0}
{"Compound": "CCC(C)COC(=O)c1ccc(N=Cc2ccc(C=Nc3ccc(C(=O)OCC(C)CC)cc3)cc2)cc1 (centres undefined)", "Category label": 0}
{"Compound": "CC(C)=CC(=O)O[C@@H]1CC(C)(C)CC2C3=CCC4[C@]56CC[C@](O)(OC5)C(C)(C)C6CC[C@@]4(C)C3(C)CC[C@]21C(=O)O (some centres undefined)", "Category label": 0}

Kindly provide the recorded test outcome for the following compound: O=[N+]([O-])c1ccc([N+]2=NC(c3ccccc3)=NN(c3ccccc3)C2)cc1
0

Kindly provide the recorded test outcome for the following compound: O=C(/C=C/c1cccc(Br)c1)c1cccs1
1

Kindly provide the recorded test outcome for the following compound: O=C(O)c1ccccc1-c1ccccc1C(=O)Nc1ccc2c(c1)Cc1ccccc1-2
0

Kindly provide the recorded test outcome for the following compound: NNC(=O)CCc1ccc2ccc3ccccc3c2c1
0

Kindly provide the recorded test outcome for the following compound: N/C(=N\OC(=O)NC(Cl)=C(Cl)Cl)c1cc(C(F)(F)F)cc(C(F)(F)F)c1
0

Kindly provide the recorded test outcome for the following compound: O=[N+]([O-])CC(SCc1ccccc1)c1ccc2c(c1)OCO2 (centres undefined)
1

Kindly provide the recorded test outcome for the following compound: C[C@@H]1C[C@H]2[C@@H]3CCC4=CC(=O)C=C[C@]4(C)[C@@]3(Cl)[C@@H](Cl)C[C@]2(C)[C@@]1(O)C(=O)COP(=O)(O)O
0

Kindly provide the recorded test outcome for the following compound: O=[N+]([O-])/C=C/c1ccc2ccccc2c1
1

Kindly provide the recorded test outcome for the following compound: CC1(C)[C@@H]2CC[C@]1(C)[C@H](OC(=O)CSC#N)C2
0

Kindly provide the recorded test outcome for the following compound: Cc1ccc(S(=O)(=O)Oc2cc(Cl)c(Cl)cc2Cl)cc1
0

Kindly provide the recorded test outcome for the following compound: CN(CCc1ccccn1)c1ccc2c(c1)Cc1ccccc1-2
1

Kindly provide the recorded test outcome for the following compound: Cc1ccc(-n2cc(-c3ccc(Cl)cc3)c(C#N)c2N)cc1
0

Kindly provide the recorded test outcome for the following compound: CC(C)NC(=O)OCc1c(COC(=O)NC(C)C)c(-c2ccc(Cl)c(Cl)c2)n2c1CCC2
0

Kindly provide the recorded test outcome for the following compound: Cc1[nH]c2ccccc2c1C(c1ccc(N)cc1)c1c(C)[nH]c2ccccc12
0

Kindly provide the recorded test outcome for the following compound: COC(=O)C1=C(C)NC(C)=C(C(=O)OCCCN2CCC(c3ccccc3)(c3ccccc3)CC2)C1c1cccc([N+](=O)[O-])c1 (centres undefined)
1

Kindly provide the recorded test outcome for the following compound: CNC(=O)OCc1c(COC(=O)NC)c(-c2ccc(-c3ccccc3)cc2)n(C)c1C
0
